B1: ZNF449 (parent)
chain: RIHSGEEPHKCPECGKRFLRSSDL

Variants of: B1
Test: protein stability index of a GFP-peptide fusion (GPS, HEK-293T) (PSI 1-6); higher = more stable;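 also: lentivirally expressed fusions sorted by FACS into six bins by GFP to DsRed ratio, PSI derived from sequencing read proportions per bin multiplied by bin number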
Settings: c terminus: a fixed tail appended
test_readout: protein stability index

| mutation_key | test_readout | reported_result |
| --- | --- | --- |
| L19P | protein stability index | 3.54 |
| E7I | protein stability index | 2.68 |
| P8C | protein stability index | 3.19 |
| P12V | protein stability index | 3.5 |
| C14L | protein stability index | 3.79 |
| G15D | protein stability index | 3.27 |
| I2H | protein stability index | 3.46 |
| H9G | protein stability index | 2.99 |
| K16S | protein stability index | 3.68 |
